EXPERIMENTAL TARGET: FSHR (Homo sapiens)
Construct: expressed in transfected cells; host or cells: CHO (Cho-FSHR-LUC-1-1-43)
Sequence (P23945 18-695): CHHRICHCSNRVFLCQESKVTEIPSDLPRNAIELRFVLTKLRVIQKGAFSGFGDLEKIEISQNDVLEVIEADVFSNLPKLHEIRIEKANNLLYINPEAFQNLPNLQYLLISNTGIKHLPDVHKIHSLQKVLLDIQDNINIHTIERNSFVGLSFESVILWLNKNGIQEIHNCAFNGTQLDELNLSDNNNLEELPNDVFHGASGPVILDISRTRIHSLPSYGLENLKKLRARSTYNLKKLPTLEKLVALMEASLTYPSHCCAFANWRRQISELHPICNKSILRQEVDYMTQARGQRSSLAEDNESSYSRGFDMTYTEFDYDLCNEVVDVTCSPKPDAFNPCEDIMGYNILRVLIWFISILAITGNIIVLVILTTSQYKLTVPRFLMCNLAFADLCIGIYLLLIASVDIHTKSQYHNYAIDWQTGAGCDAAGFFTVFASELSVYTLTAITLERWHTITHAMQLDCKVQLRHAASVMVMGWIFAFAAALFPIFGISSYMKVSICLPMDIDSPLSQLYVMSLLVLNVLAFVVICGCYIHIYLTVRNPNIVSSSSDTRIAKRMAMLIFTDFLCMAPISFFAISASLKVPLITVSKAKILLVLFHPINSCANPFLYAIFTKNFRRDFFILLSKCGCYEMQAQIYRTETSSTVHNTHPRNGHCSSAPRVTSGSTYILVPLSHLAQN
Sequence (P01215 25-116 partner): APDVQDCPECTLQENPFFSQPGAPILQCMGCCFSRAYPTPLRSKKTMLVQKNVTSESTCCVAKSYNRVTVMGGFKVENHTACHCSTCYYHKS
Sequence (P01225 19-129 partner): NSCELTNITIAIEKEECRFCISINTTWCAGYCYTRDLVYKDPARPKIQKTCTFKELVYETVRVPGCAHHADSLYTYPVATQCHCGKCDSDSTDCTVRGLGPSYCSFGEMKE
ASSAY TEXT: EC50 of cyclic AMP production in CHO FSHR cells + EC20 FSH (Assay A)
Format: cell-based
RUN CONDITIONS: CHO FSHR cells + EC20 FSH; Table 2; read-out: Assay A EC50 of cyclic AMP production
pEC50: −log10 of the molar value.
MEASURED PARAMETER: pEC50

# count of solved cases: 6
**Q:** Lab request: please report pEC50 under test system FSHR (Homo sapiens) for Cc1ccccc1N1CCN(c2ccc(C(=O)NCCCN3CCCC3=O)cc2NC(=O)c2coc(CN(C)C)n2)CC1
**A:** < 5.00

**Q:** Lab request: please report pEC50 under test system FSHR (Homo sapiens) for Cc1ccccc1N1CCN(c2ccc(C(=O)NC(C)(C)c3cccc(CN(C)C)c3)cc2NC(=O)c2ccco2)CC1
**A:** 5.00 to 6.00

**Q:** Lab request: please report pEC50 under test system FSHR (Homo sapiens) for Cc1ccccc1N1CCN(c2ccc(C(=O)NCCCN3CCC[C@@H]3C(N)=O)cc2NC(=O)c2ccco2)CC1
**A:** 6.00 to 7.00

**Q:** Lab request: please report pEC50 under test system FSHR (Homo sapiens) for O=C(NCCCN1CCCC1=O)c1ccc(N2CCN(c3ccccc3OC(F)(F)F)CC2)c(NC(=O)c2coc(C3CC3)n2)c1
**A:** 5.00 to 6.00

**Q:** Lab request: please report pEC50 under test system FSHR (Homo sapiens) for Cc1ccccc1N1CCN(c2ccc(C(=O)NCC3C[C@@H]4CC[C@H]3C4)cc2NC(=O)c2ccco2)CC1 (stereo partly shown)
**A:** 6.00 to 7.00

**Q:** Lab request: please report pEC50 under test system FSHR (Homo sapiens) for Cc1ccccc1N1CCN(c2ccc(C(=O)NCCCN3CCN(C)C3=O)cc2NC(=O)c2coc(C3CC3)n2)CC1
**A:** > 7.00

Please state pEC50 for every compound in the list that follows.
1. Cc1ccccc1N1CCN(c2ccc(C(=O)NC(C)(C)c3cccc(CN(C)C)c3)cc2NC(=O)c2coc(C3CC3)n2)CC1
2. Cc1ccccc1N1CCN(c2ccc(C(=O)N[C@H]3O[C@@H](CO)[C@H](O)[C@@H]3O)cc2NC(=O)c2coc(C3CC3)n2)CC1
3. Cc1ccc(C(=O)Nc2cc(C(=O)NCCCN3C(=O)OCC3(C)C)ccc2N2CCN(c3ccccc3C)CC2)o1
4. Cc1ccccc1N1CCN(c2ccc(C(=O)NC[C@H](O)c3ccccc3)cc2NC(=O)c2ccco2)CC1
5. Cc1cncnc1N1CCN(c2ccc(C(=O)NCCCN3CCCC3=O)cc2NC(=O)c2coc(C3CC3)n2)CC1
6. NC1(c2ccccc2)CCN(c2ccc(C(=O)NCCCN3CCCC3=O)cc2NC(=O)c2coc(C3CC3)n2)CC1

**A:**
5.00 to 6.00
6.00 to 7.00
5.00 to 6.00
> 7.00
5.00 to 6.00
< 5.00

**Q:** Lab request: please report pEC50 under test system FSHR (Homo sapiens) for Cc1ccccc1N1CCN(c2ccc(C(=O)NCCCN3C(=O)[C@@H]4CC[C@H]3C4)cc2NC(=O)c2coc(C3CC3)n2)CC1
**A:** 6.00 to 7.00

====

EXPERIMENTAL TARGET: FSHR (Homo sapiens)
Construct: expressed in transfected cells; host or cells: CHO (Cho-FSHR-LUC-1-1-43)
ASSAY TEXT: EC50 of cyclic AMP production in CHO FSHR cells + EC20 FSH (Assay A)
Format: cell-based
RUN CONDITIONS: CHO FSHR cells + EC20 FSH; Table 1; read-out: Assay A EC50 of cyclic AMP production
MEASURED PARAMETER: EC50

**Q:** Lab request: please report EC50 under test system FSHR (Homo sapiens) for Cc1ccccc1N1CCN(c2ccc(C(=O)N[C@@H]3CCCNC3)cc2NC(=O)c2ccco2)CC1
**A:** 1 to 10 µM

**Q:** Lab request: please report EC50 under test system FSHR (Homo sapiens) for Cc1ccc(C(=O)Nc2cc(C(=O)NCCCn3ccnc3)ccc2N2CCN(c3ccccc3C)CC2)o1
**A:** 1 to 10 µM

**Q:** Lab request: please report EC50 under test system FSHR (Homo sapiens) for Cc1ccccc1N1CCN(c2ccc(C(=O)NCCN(C)C(=O)c3ccc4c(c3)OCO4)cc2NC(=O)c2ccco2)CC1
**A:** 1 to 10 µM

Switching to the query record.
**Q:** Lab request: please report EC50 under test system FSHR (Homo sapiens) for CCC(C)(C)C(=O)N(C)CCNC(=O)c1ccc(N2CCN(c3ccccc3C)CC2)c(NC(=O)c2ccco2)c1
**A:** 0.1 to 1 µM
